- Tested on: A2058 cells
- testDetails: Cell viability assay (Cell-Titer-Glo) in A2058 cells
- Type: cell-based
- settings: Homo sapiens, 48 hour treatment, test compounds 1 nM to 1 μM
The following molecules are shown together with reported IC50 values.
All answers are understood in nM, so give the number only.

A selection of reference data follows.
molecule="CC(C)[C@H](O)C(=O)N[C@H]1Cc2ccc3c(c2)C2(C4=C(c5nc(C(C)(C)O)co5)N=C(O4)[C@H](C(C)C)NC1=O)c1ccccc1N[C@H]2O3 (stereo partly drawn)" measure=IC50 numericresult=602
molecule="CC(C)[C@H](O)C(=O)NC1Cc2ccc3c(c2)[C@]2(C4=C(c5nc(-c6ncc[nH]6)co5)N=C(O4)[C@H](C(C)C)NC1=O)c1ccccc1NC2O3 (stereo partly drawn)" measure=IC50 numericresult=589
molecule="COC(=O)c1coc(-c2nc3oc2[C@@]24c5ccccc5NC2Oc2ccc(cc24)C[C@H](NC(=O)[C@@H](O)C(C)C)C(=O)N[C@H]3C)n1 (stereo partly drawn)" measure=IC50 numericresult=968

Result for CC(C)[C@H](O)C(=O)N[C@H]1Cc2ccc3c(c2)C2(C4=C(c5nc(C#N)co5)N=C(O4)[C@H](C(C)(C)C)NC1=O)c1ccccc1N[C@H]2O3 (stereo partly drawn) , tested on A2058 cells, IC50: 2.54

Result for CC(C)c1coc(-c2nc3oc2C24c5ccccc5N[C@H]2Oc2ccc(cc24)C[C@H](NC(=O)[C@@H](O)C(C)C)C(=O)N[C@H]3C(C)C)n1 (stereo partly drawn) , tested on A2058 cells, IC50: 684

Result for CC(C)C[C@H](O)C(=O)NC1Cc2ccc3c(c2)C2(C4=C(c5nc(C#N)co5)N=C(O4)[C@H](C(C)(C)C)NC1=O)c1ccccc1N[C@H]2O3 (stereo partly drawn) , tested on A2058 cells, IC50: 35.8

Result for COC(=O)c1coc(-c2nc3oc2[C@@]24c5ccccc5NC2Oc2c(F)cc(cc24)CC(NC(=O)[C@@H](O)C(C)C)C(=O)N[C@H]3C(C)C)n1 (stereo partly drawn) , tested on A2058 cells, IC50: 67

Result for CC(C)[C@H](O)C(=O)N[C@H]1Cc2ccc3c(c2)C2(C4=C(c5nc(C6=NCCO6)co5)N=C(O4)[C@H](C(C)C)NC1=O)c1ccccc1N[C@H]2O3 (stereo partly drawn) , tested on A2058 cells, IC50: 22

Result for CC(C)[C@@H]1NC(=O)C(NC(=O)[C@@H](O)C(C)(C)C)Cc2ccc3c(c2)C2(C4=C(c5nc(CO)co5)N=C1O4)c1ccccc1N[C@H]2O3 (stereo partly drawn) , tested on A2058 cells, IC50: 112

Result for CCC(C)(C)C(=O)NC1Cc2ccc3c(c2)C2(C4=C(c5nc(C#N)co5)N=C(O4)[C@H](C(C)(C)C)NC1=O)c1ccccc1N[C@H]2O3 (stereo partly drawn) , tested on A2058 cells, IC50: 95.5
